Catalogue of binders with associated EC50 (nM) GluR, cAMP formation
# TARGET_OF_ASSAY: human glucagon receptor (Glucagon-R) (human, UniProt P47871 26-477)
# ASSAY_EXPLANATION: cell-based or functional assay
Square brackets hold non-standard residues; d marks the D form. Side chains are listed from the residue outwards. Ends that are not written are not given here. * marks the point of attachment. isoGlu = used interchangeably with γ-Glu; Palmitoyl = CCCCCCCCCCCCCCCC(=O)*; Aib = CC(C)(N)C(=O)O

BINDER	EC50 (nM) GluR, cAMP formation
H[Aib]QGTFTSDYSKYLDSK([isoGlu-Palmitoyl])AAHEFVEWLLSA-NH2 [Compound 41]	0.08 nM
HXQGTFTSDYSKYLDSKAAHDFVEWLLSA (Aib at position 2; K(Dodecanoyl-isoGlu) at position 17; C-terminal amide (NH2)) [Compound 26]	0.116 nM
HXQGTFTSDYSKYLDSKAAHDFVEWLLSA (Aib at position 2; K(Octadecanoyl-isoGlu) at position 17; C-terminal amide (NH2)) [Compound 25]	0.103 nM
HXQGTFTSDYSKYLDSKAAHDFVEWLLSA (Aib at position 2; K(Hexadecanoyl-[3-Aminopropanoyl]) at position 17; C-terminal amide (NH2)) [Compound 31]	0.151 nM
H-H[Aib]QGTFTSDYSKYLDSKAAHDFVK([isoGlu-Palmitoyl])WLLSA-NH2 [Compound 36]	0.213 nM
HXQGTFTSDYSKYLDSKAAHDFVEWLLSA (Aib at position 2; K(Hexadecanoyl-isoLys) at position 17; C-terminal amide (NH2)) [Compound 30]	0.11 nM
